Reported IC50 values for a set of molecules
system-tested: γ-secretase (Homo sapiens, UniProt P49768)
Construct: endogenous in cells; host or cells: SKNBE2 human neuroblastoma cells (carrying hAPP 695 wild type as substrate)
procedure-text: Screening for γ-secretase-modulating activity: Aβtotal in supernatant of SKNBE2 cells carrying hAPP 695 wild type (Alphalisa)
Type: cell-based
assay-context: SKNBE2 human neuroblastoma cells carrying hAPP 695 wild type, overnight incubation, Aβtotal in cell supernatant

Recorded IC50, per entry:
Cc1cn(-c2ccc3n(c2=O)C[C@@H](C)N(CCc2cccc(Cl)c2Cl)C3=O)cn1 : > 10 µM
Cc1cn(-c2ccc3n(c2=O)CCN(Cc2ccc(Cl)c(C(F)(F)F)c2)C3=O)cn1 : > 10 µM
Cc1cn(-c2ccc3n(c2=O)C[C@@H](C)N(Cc2ccc(Cl)c(C(F)(F)F)c2)C3=O)cn1 : > 10 µM
Cc1cn(-c2ccc3n(c2=O)C[C@@H](C)N(Cc2cccc(Cl)c2C)C3=O)cn1 : > 10 µM
Cc1cn(-c2ccc3n(c2=O)C[C@@H](C)N(Cc2cn(C)c4cc(Cl)c(Cl)cc24)C3=O)cn1 : 3 µM
Cc1cn(-c2ccc3n(c2=O)CCN(C2CC2c2ccc(Cl)cc2)C3=O)cn1 (centres unmarked) : > 10 µM

Task: What measured IC50 is associated with Cc1cn(-c2ccc3n(c2=O)CCN(C(C)c2ccc(Cl)c(Cl)c2)C3=O)cn1 (single isomer, unassigned) on γ-secretase (Homo sapiens, UniProt P49768)?
Output: > 10 µM

Task: What measured IC50 is associated with Cc1cn(-c2ccc3n(c2=O)C[C@@H](C)N(CCc2cc(C(F)(F)F)cc(C(F)(F)F)c2)C3=O)cn1 on γ-secretase (Homo sapiens, UniProt P49768)?
Output: > 10 µM
